Target: Tyrosine-protein phosphatase non-receptor type 1 (Homo sapiens)
Sequence (P18031 whole entry): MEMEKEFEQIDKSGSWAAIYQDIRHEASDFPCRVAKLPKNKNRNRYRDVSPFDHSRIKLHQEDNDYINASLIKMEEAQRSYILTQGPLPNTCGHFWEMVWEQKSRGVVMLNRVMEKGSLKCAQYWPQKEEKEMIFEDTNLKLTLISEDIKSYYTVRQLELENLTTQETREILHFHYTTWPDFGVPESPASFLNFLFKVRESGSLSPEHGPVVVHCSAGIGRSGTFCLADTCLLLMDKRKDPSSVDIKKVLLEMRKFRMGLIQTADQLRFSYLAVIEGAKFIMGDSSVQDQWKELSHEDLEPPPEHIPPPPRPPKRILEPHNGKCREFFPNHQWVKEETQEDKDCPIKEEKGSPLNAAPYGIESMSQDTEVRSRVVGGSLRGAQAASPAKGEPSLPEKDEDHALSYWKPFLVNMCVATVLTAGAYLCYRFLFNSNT
Experiment: Inhibition of human recombinant PTP1B
pKi: −log10 of the molar value.
propertyName: pKi

As a guide, the following entries are already answered.
{"columns": ["smilesCode", "pKi"],
 "data": [
  ["O=C(O)COc1cc(-c2cccc(NC3CCN(S(=O)(=O)Cc4ccccc4)CC3)c2)sc1C(=O)O", 5.70],
  ["O=C(O)COc1c(C(=O)O)sc(-c2cccc(NC3CCN(S(=O)(=O)Cc4ccccc4Cl)CC3)c2)c1Br", 8.30]
]}

A = O=C(O)COc1c(C(=O)O)sc(-c2cccc(NCC3CCN(C(=O)Nc4ccccc4Cl)CC3)c2)c1Br
B = O=C(O)COc1c(C(=O)O)sc(-c2cccc(NC3CCOCC3)c2)c1Br
C = O=C(O)COc1c(C(=O)O)sc(-c2cccc(NCC3CCN(C(=O)Nc4ccccc4)CC3)c2)c1Br
D = O=C(O)COc1c(C(=O)O)sc(-c2cccc(NC3CCNCC3)c2)c1Br
E = O=C(O)COc1c(C(=O)O)sc(-c2cccc(OC3CCN(S(=O)(=O)Cc4ccccc4)CC3)c2)c1Br
### Prompt # sort list by recorded pKi, greatest to least Sort the labels as requested; that list is your answer.
### Response A, C, E, B, D
(A: 8.40, C: 8.15, E: 7.62, B: 6.51, D: 5.42)
